molecular target: Solute carrier organic anion transporter family member 1B1 (Homo sapiens, UniProt Q9Y6L6); conditions: chinese hamster, cho, 10 µM
Sequence (Q9Y6L6 whole entry): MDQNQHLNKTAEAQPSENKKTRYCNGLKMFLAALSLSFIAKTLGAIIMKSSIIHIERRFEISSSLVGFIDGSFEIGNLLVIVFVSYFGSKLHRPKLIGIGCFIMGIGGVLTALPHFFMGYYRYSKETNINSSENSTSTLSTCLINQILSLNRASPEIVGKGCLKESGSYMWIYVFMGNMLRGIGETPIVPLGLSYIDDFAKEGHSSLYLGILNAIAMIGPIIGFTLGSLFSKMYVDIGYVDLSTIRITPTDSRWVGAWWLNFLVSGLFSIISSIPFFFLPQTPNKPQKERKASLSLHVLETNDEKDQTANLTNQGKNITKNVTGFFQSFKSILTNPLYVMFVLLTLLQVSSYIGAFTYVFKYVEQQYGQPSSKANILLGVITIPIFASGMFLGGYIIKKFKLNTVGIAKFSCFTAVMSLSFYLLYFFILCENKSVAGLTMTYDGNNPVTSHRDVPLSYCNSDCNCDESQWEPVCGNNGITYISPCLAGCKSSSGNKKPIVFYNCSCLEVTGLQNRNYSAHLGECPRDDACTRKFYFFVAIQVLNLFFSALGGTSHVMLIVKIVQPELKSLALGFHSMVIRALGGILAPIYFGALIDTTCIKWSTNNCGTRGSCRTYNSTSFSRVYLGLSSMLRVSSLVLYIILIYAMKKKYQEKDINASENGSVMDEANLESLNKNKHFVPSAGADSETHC
Starred links: 1 amine or outer side, 2 acyl side, 3 side chain; linkers in the order of their positions; H or OH if unused. Positions of bridges follow the written chain, without caps; N, C: chain ends. Non-standard residues stand in square brackets, D forms with d. Residues, ends and D or L forms follow the SMILES beside them. Chains are numbered I, II in the order given. Actinocin(9to1) = Cc1c2oc3c(C)ccc(C(=O)[*:1])c3nc-2c(C(=O)[*:2])c(N)c1=O; NMeV = CN[C@H](C(=O)O)C(C)C; Sar = CNCC(=O)O

>  <molecule>
Cc1c(OCC(F)(F)F)ccnc1C[S+]([O-])c1nc2ccccc2[nH]1 (centres undefined) [LANSOPRAZOLE]

>  <readout unit>
%

>  <residual activity>
95.47

$$$$
>  <molecule>
Oc1ccc([C@H]2Oc3cc(O)cc(O)c3C[C@H]2O)cc1 [EPIAFZELECHIN (2R,3R)(-)]

>  <readout unit>
%

>  <residual activity>
48.25

$$$$
>  <molecule>
Cc1cc(=O)c2c(O)c3c(cc2o1)OCC(C)CC3 (centres undefined) [DIHYDROPTAEROXYLIN]

>  <readout unit>
%

>  <residual activity>
94.2

$$$$
>  <molecule>
O=c1cc[nH]c(=S)[nH]1 [THIOURACIL]

>  <readout unit>
%

>  <residual activity>
95.34

$$$$
>  <molecule>
CC(=O)O[C@@H]1CC[C@@]2(C)[C@@H](CC[C@@H]3[C@@H]2CC[C@]2(C)C(=O)CC[C@@H]32)C1 [ANDROSTERONE ACETATE]

>  <readout unit>
%

>  <residual activity>
76.88

$$$$
>  <molecule>
COc1cc(-c2coc3cc(OCc4ccccc4)c(OC)c(O)c3c2=O)cc(OCc2ccccc2)c1OC [IRIGENIN, DIBENZYL ETHER]

>  <readout unit>
%

>  <residual activity>
92.09

$$$$
>  <molecule>
NC(=O)NC(=O)Cc1ccccc1 [PHENACEMIDE]

>  <readout unit>
%

>  <residual activity>
93.72

$$$$
>  <molecule>
CC(=O)OC1CCC23CC1(C)CCC2C(C)(C)CC3OC(C)=O (centres undefined) [CLOVANEDIOL DIACETATE]

>  <readout unit>
%

>  <residual activity>
109.5

$$$$
>  <molecule>
C[C@@H]1CC[C@@]2(OC1)O[C@H]1C[C@H]3[C@@H]4CC[C@@]5(C)C[C@@H](O)CC[C@]5(C)[C@H]4CC(=O)[C@]3(C)[C@H]1[C@@H]2C [HECOGENIN]

>  <readout unit>
%

>  <residual activity>
41.82

$$$$
>  <molecule>
CCN(CC)CCNC(=O)c1ccc(NC(C)=O)cc1.Cl [ACECAINIDE HYDROCHLORIDE]

>  <readout unit>
%

>  <residual activity>
70.32

$$$$
>  <molecule>
COc1ccc2c(c1)OC[C@@H](Cc1ccc(OC)c(OC)c1)[C@@H]2O [3-DESHYDROXYSAPPANOL TRIMETHYL ETHER]

>  <readout unit>
%

>  <residual activity>
100.6

$$$$
>  <molecule>
CCC1(C2=NCCN2)Cc2ccccc2O1.Cl (centres undefined) [EFAROXAN HYDROCHLORIDE]

>  <readout unit>
%

>  <residual activity>
80.2

$$$$
>  <molecule>
CC1=C(/C=C/C(C)=C/C=C/C(C)=C\C(=O)O)C(C)(C)CCC1 [ISOTRETINOIN]

>  <readout unit>
%

>  <residual activity>
32.24

$$$$
>  <molecule>
CC(C)NC[C@@H](O)COc1cccc2ccccc12.Cl [DEXPROPRANOLOL HYDROCHLORIDE]

>  <readout unit>
%

>  <residual activity>
108.7

$$$$
>  <molecule>
CC(C)(C)NC[C@H](O)c1ccc(O)c(CO)c1.Cl [LEVALBUTEROL HYDROCHLORIDE]

>  <readout unit>
%

>  <residual activity>
95.04

$$$$
>  <molecule>
CC[C@H](CC[C@@H](C)[C@H]1CC[C@H]2[C@@H]3CC=C4C[C@@H](OC(C)=O)CC[C@]4(C)[C@H]3CC[C@]12C)C(C)C [SITOSTERYL ACETATE]

>  <readout unit>
%

>  <residual activity>
97.72

$$$$
>  <molecule>
Cc1c2oc3c(C)ccc(C(=O)N[C@@H]4C(=O)N[C@H](C(C)C)C(=O)N5CCC[C@H]5C(=O)N(C)CC(=O)N(C)[C@@H](C(C)C)C(=O)O[C@@H]4C)c3nc-2c(C(=O)N[C@@H]2C(=O)N[C@H](C(C)C)C(=O)N3CCC[C@H]3C(=O)N(C)CC(=O)N(C)[C@@H](C(C)C)C(=O)O[C@@H]2C)c(N)c1=O [DACTINOMYCIN] (I: T[dV]P[Sar][NMeV] / II: T[dV]P[Sar][NMeV]; ester I:1-I:C, II:1-II:C; linker I:N-II:N via Actinocin(9to1))

>  <readout unit>
%

>  <residual activity>
57.98

$$$$
>  <molecule>
C[C@H]1[C@H]2CC[C@H]3[C@@H]4CC=C5C[C@@H](N(C)C)CC[C@]5(C)[C@H]4CC[C@]23CN1C [CONESSINE]

>  <readout unit>
%

>  <residual activity>
100.9

$$$$
>  <molecule>
CCCn1c(=O)c2[nH]c(C3CCCC3)nc2n(CCC)c1=O

>  <readout unit>
%

>  <residual activity>
264.1

$$$$
>  <molecule>
C=C(C)[C@@H]1CC[C@]2(C(=O)O)CC[C@]3(C)[C@H](CC[C@@H]4[C@@]5(C)CC[C@H](O)C(C)(C)[C@@H]5CC[C@]43C)[C@@H]12 [BETULINIC ACID]

>  <readout unit>
%

>  <residual activity>
25.94

$$$$
>  <molecule>
CCN(Cc1ccncc1)C(=O)C(CO)c1ccccc1 (centres undefined) [TROPICAMIDE]

>  <readout unit>
%

>  <residual activity>
75.11

$$$$
>  <molecule>
CCOC(=O)c1c(C)cc(O)c(C=O)c1O [ETHYL HEMATOMMATE]

>  <readout unit>
%

>  <residual activity>
61.89

$$$$
>  <molecule>
CC(=O)OCC(=O)[C@@]1(O)CC[C@H]2[C@@H]3CCC4=CC(=O)CC[C@]4(C)[C@H]3[C@@H](O)C[C@@]21C [HYDROCORTISONE ACETATE]

>  <readout unit>
%

>  <residual activity>
93.94

$$$$
>  <molecule>
CCC(=O)Nc1ccc(Cl)c(Cl)c1 [PROPANIL]

>  <readout unit>
%

>  <residual activity>
92.07

$$$$
>  <molecule>
COc1cc(O)ccc1C(C)=O [ISOPEONOL]

>  <readout unit>
%

>  <residual activity>
60.41

$$$$
>  <molecule>
CCCCC(=O)N(Cc1ccc(-c2ccccc2-c2nnn[nH]2)cc1)[C@H](C(=O)O)C(C)C

>  <readout unit>
%

>  <residual activity>
67.47

$$$$
>  <molecule>
O=c1cc(-c2ccccc2)oc2cc(O)cc(O)c12 [CHRYSIN]

>  <readout unit>
%

>  <residual activity>
115.4

$$$$
>  <molecule>
NC[C@@H]1CC[C@@H](N)[C@@H](O[C@H]2[C@H](O)[C@@H](O[C@H]3O[C@H](CO)[C@@H](O)[C@H](N)[C@H]3O)[C@H](N)C[C@@H]2N)O1 [DIBEKACIN]

>  <readout unit>
%

>  <residual activity>
88.15

$$$$
>  <molecule>
CC1=CC(=O)C2=C(C)C[C@H](O)[C@@H]3[C@H](OC(=O)[C@H]3C)[C@H]12 [AUSTRICINE]

>  <readout unit>
%

>  <residual activity>
102.6

$$$$

----------
List of IC50 tested on Solute carrier organic anion transporter family member 1B1 (Homo sapiens).

>  <compound>
CC(=O)O[C@@H]1C[C@@H]2C(C)(C)[C@H](O)C=C[C@@]2(C)[C@@H]2CC[C@@]3(C)C(=CC(=O)O[C@@H]3c3ccoc3)[C@@]12C

>  <IC50 (nM)>
2190

$$$$
>  <compound>
CC(=O)O[C@H]1C[C@@H](OC(C)=O)C(C)(C)[C@@H]2C[C@@H](O)[C@@]3(C)[C@H](CC[C@]4(C)[C@@H](c5ccoc5)OC(=O)[C@H]5O[C@@]534)[C@@]12C

>  <IC50 (nM)>
977

$$$$
>  <compound>
CC(=O)O[C@H]1CC[C@]2(C)[C@H]3C(=O)C=C4[C@@H]5[C@@H](C)[C@H](C)CC[C@]5(C(=O)O)CC[C@@]4(C)[C@]3(C)CC[C@H]2C1(C)C [11-OXOURSOLIC ACID ACETATE]

>  <IC50 (nM)>
11200

$$$$
>  <compound>
CC1(C)C(=O)CC[C@]2(C)[C@@H]1C[C@@H](O)[C@]1(C)C3=CC(=O)O[C@H](c4ccoc4)[C@@]3(C)CC[C@@H]21

>  <IC50 (nM)>
6310

$$$$
>  <compound>
CC(C)=CCCC1(C)C=Cc2c(O)c3c(c(CC=C(C)C)c2O1)OC12C(=CC4CC1C(C)(C)OC2(C/C=C(/C)C(=O)O)C4O)C3=O (stereo unspecified) [DIHYDROGAMBOGIC ACID]

>  <IC50 (nM)>
2240

$$$$
>  <compound>
COc1c(CC=C(C)C)c2c(c3oc(=O)c(-c4ccc(O)cc4)c(O)c13)C=CC(C)(C)O2 [SCANDENIN]

>  <IC50 (nM)>
1070

$$$$
>  <compound>
CC(=O)OC/C=C(C)/C=C/C=C(C)/C=C/C1=C(C)CCCC1(C)C [GILRETINOL ACETATE]

>  <IC50 (nM)>
2240

$$$$
>  <compound>
CCOC(=O)CCC(=O)O[C@H]1[C@H](O[C@@H]2[C@@H](C)[C@H](O[C@H]3C[C@@](C)(OC)[C@@H](O)[C@H](C)O3)[C@@H](C)C(=O)O[C@H](CC)[C@@](C)(O)[C@H](O)[C@@H](C)C(=O)[C@H](C)C[C@@]2(C)O)O[C@H](C)C[C@@H]1N(C)C [ERYTHROMYCIN ETHYLSUCCINATE]

>  <IC50 (nM)>
3020

$$$$
>  <compound>
CCCCCCCCCc1ccc(OCCOCCOCCOCCOCCOCCOCCOCCOCCO)cc1 [NONOXYNOL 9]

>  <IC50 (nM)>
3470

$$$$
>  <compound>
CC(=O)O[C@@H]1C[C@H]2C(C)(C)[C@@H](O)CC[C@]2(C)[C@H]2CC[C@@]3(C)[C@H](c4ccoc4)OC(=O)[C@H]4O[C@]43[C@@]21C [beta-DIHYDROGEDUNOL]

>  <IC50 (nM)>
1700

$$$$
>  <compound>
CC(=O)O[C@H]1C[C@@H](OC(C)=O)C(C)(C)[C@@H]2C[C@@H](OC(C)=O)[C@]3(C)[C@H]([C@H](OC(C)=O)C[C@@]4(C)[C@H](c5ccoc5)OC(=O)[C@H]5O[C@@]534)[C@@]12C

>  <IC50 (nM)>
871

$$$$
>  <compound>
O=c1c(-c2ccc(O)cc2)coc2cc(O)cc(O)c12 [GENISTEIN]

>  <IC50 (nM)>
9120

$$$$
>  <compound>
O=C(O[C@@H]1Cc2c(O)cc(O)cc2O[C@@H]1c1ccc(O)c(O)c1)c1cc(O)c(O)c(O)c1 [EPICATECHIN GALLATE]

>  <IC50 (nM)>
3800

$$$$
>  <compound>
O=C1C=CC(=C(c2ccc(O)cc2)c2ccc(O)cc2)C=C1 [AURIN]

>  <IC50 (nM)>
2630

$$$$
>  <compound>
CC(=O)Oc1c2c(c(CC=C(C)C)c3c1C(=O)C1=C[C@@H]4CC5C(C)(C)OC(C/C=C(\C)C(=O)O)(C4=O)[C@@]15O3)OC(C)(CCC=C(C)C)C=C2 (stereo partly specified) [ACETYL ISOGAMBOGIC ACID]

>  <IC50 (nM)>
4070

$$$$
>  <compound>
COC(=O)c1c(C)c2c(c(C)c1O)OC(=O)c1c(C)c(Cl)c(O)c(Cl)c1O2 [LEOIDIN]

>  <IC50 (nM)>
145

$$$$
>  <compound>
CC(C)C1=CC2=CC[C@@H]3[C@](C)(CCC[C@@]3(C)C(=O)O)[C@H]2CC1 [ABIETIC ACID]

>  <IC50 (nM)>
2690

$$$$
>  <compound>
O=C(O)c1cc2ccccc2c(Cc2c(O)c(C(=O)O)cc3ccccc23)c1O.OCCOCCN1CCN(C(c2ccccc2)c2ccc(Cl)cc2)CC1 [HYDROXYZINE PAMOATE]

>  <IC50 (nM)>
813

$$$$
>  <compound>
CCC(C)C(=O)O[C@@H]1C[C@@]2(C)[C@H](c3ccoc3)OC(=O)CC23OC2(C)O[C@]14[C@]1(C)[C@@H](CC(=O)OC)C5(C)CC1(O)[C@](O)(C5OC(=O)C1(C)OC1C)[C@@H](OC(C)=O)[C@]34O2 (stereo partly specified) [UTILIN]

>  <IC50 (nM)>
676

$$$$
>  <compound>
Cc1onc(-c2c(Cl)cccc2Cl)c1C(=O)N[C@@H]1C(=O)N2[C@@H]1SC(C)(C)[C@@H]2C(=O)[O-].O.[Na+] [DICLOXACILLIN SODIUM]

>  <IC50 (nM)>
676

$$$$
>  <compound>
CC(=O)O[C@@H]1C[C@@H]2C(C)(C)C(=O)C=C[C@@]2(C)[C@@H]2CC[C@@]3(C)C(=CC(=O)O[C@@H]3c3ccoc3)[C@@]12C

>  <IC50 (nM)>
1510

$$$$
